Exercise: state measured Adjusted SHU for each of the compounds provided.
biological target: TRPV1 (Homo sapiens, UniProt Q8NER1); test: Scoville Heat Unit (SHU) as a measure of TRPV1 activation; conditions: SHU of pure agonist times percent agonist in the herb; totals per herb
Sequence (Q8NER1 whole entry, species assumed): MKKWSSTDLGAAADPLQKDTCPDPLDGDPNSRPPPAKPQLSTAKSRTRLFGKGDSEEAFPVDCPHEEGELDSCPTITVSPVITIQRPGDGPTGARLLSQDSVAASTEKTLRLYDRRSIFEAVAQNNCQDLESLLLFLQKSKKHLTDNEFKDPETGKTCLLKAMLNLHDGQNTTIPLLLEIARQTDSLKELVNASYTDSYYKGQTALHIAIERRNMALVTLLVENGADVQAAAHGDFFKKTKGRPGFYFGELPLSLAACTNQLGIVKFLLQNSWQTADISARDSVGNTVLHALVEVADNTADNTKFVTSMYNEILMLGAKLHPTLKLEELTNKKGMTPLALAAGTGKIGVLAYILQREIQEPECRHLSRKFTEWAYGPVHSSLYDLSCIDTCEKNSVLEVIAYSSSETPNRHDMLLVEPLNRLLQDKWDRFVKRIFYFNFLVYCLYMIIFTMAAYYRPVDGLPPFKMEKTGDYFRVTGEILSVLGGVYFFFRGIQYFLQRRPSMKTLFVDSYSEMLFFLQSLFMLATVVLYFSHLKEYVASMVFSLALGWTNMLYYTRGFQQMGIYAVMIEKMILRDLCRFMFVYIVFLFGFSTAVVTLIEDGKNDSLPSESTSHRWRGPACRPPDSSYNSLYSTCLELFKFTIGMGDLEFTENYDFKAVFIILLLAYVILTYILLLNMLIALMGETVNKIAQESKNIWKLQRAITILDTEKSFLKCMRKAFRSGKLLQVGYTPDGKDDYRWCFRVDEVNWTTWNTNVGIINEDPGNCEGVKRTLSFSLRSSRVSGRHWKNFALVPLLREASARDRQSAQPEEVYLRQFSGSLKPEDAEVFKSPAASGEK

Quick check: Adjusted SHU of C/C=C/C=C/C=C\CC/C=C/C=C/C(=O)NCC(C)C [γ-sanshool] ? 209 SHU

Quick check: Adjusted SHU of CCCCC/C=C/C(=O)CCc1ccc(O)c(OC)c1 [Formulation 6-shogaol, 6-shogaol] ? 9,600 SHU

Quick check: Adjusted SHU of C/C=C/C=C/C=C/CC/C=C/C=C/C(=O)NCC(C)C [δ-sanshool] ? 22 SHU

Quick check: Adjusted SHU of C/C=C/C=C/C=C/CC/C=C/C(=O)NCC(C)(C)O [β-hydroxy-sanshool] ? 35 SHU

Quick check: Adjusted SHU of C/C=C/C=C/C=C\CC/C=C/C(=O)NCC(C)C [α-sanshool] ? 368 SHU

Quick check: Adjusted SHU of C/C=C/C=C/C=C/CC/C=C/C(=O)NCC(C)C [β-sanshool] ? 49 SHU

Quick check: Adjusted SHU of C/C=C/C=C/C=C\CC/C=C/C(=O)NCC(C)(C)O [α-hydroxy-sanshool] ? 619 SHU

Quick check: Adjusted SHU of CCCCC[C@H](O)CC(=O)CCc1ccc(O)c(OC)c1 [Formulation 6-gingerol, 6-gingerol] ? 3,600 SHU

Quick check: Adjusted SHU of COc1cc(CNC(=O)CCCC/C=C/C(C)C)ccc1O [capsaicin] ? 40,000 SHU
